Target: T1, ACTH 1-24 (human)
T1 peptide: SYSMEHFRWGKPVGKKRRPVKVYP
Test: cell-based or functional assay
Listed below: IC50, ACTH 1-24 induced cAMP, MC2R cells values for each entry.
Return type: number; implicit unit nM.

binder	unit_text	numeric_value
Ab2 (antibody, V domains shown) VH: QSVEESGGRLVTPGTPLTLTCTVSGFSLSKYDMIWVRQAPGKGLESIGIIYDDGDTYYASWAKGRFTISQTSTTVDLKIISPTTEDTATYFCVKGVSNIWGQGTLVTVSS VL: DVVMTQTPASVEAAVGGTVTIKCQASQSISNYLAWYQQKTGQPPKLLIYSASTLASGVPSRFKGSGSGTEFTLTISDLECADAATYYCQSYEGSSSSSYGVGFGGGTEVVVKR	nM	1.3

Requested field: IC50, ACTH 1-24 induced cAMP, MC2R cells. Item: Ab13 (antibody, human IgG1, kappa, N297A, V domains shown) VH: QQLEESGGGLVKPGGTLTLTCTASGFSFSSGYDICWARQGPGKGLEWIGCIDTGSGNTYYASWAKGRFTMSRTSSTTVTLQVTSLTAADTATYFCAKGISSIWGPGTLVTVSS VL: DIVMTQTPASVSEPVGGTVTIKCQASQTISSDLAWYQQKPGQPPKLLIYAASKLTSGVSSRFKGGGTGTQFTLTISDLECADAATYYCQTYYDIIDDGCTFGGGTEVVVKR 1
